Biological target: UniProt:Q9Y271
Sequence (Q9Y271 whole entry): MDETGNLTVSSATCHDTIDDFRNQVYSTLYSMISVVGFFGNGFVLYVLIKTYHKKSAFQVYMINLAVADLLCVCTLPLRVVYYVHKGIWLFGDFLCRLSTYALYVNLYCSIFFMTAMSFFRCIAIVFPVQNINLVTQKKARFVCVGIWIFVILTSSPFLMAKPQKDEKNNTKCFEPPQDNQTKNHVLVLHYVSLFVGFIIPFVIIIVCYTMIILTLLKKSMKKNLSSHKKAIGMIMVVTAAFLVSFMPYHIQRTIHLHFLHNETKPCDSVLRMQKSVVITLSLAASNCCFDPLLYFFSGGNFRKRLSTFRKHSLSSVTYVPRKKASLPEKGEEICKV
Assay type: cell membranes, CHO-K1, Membrane
Conditions: read-out: Ki
quantity.measured: pKi
By convention, pKi is the negative base-10 log of a molar concentration.

## Task Recorded pKi for Clc1ccccc1C(c1ccccc1)(c1ccccc1)n1ccnc1 [CLOTRIMAZOLE] , please?
## Result 4.78

---

Target: Histamine H2 receptor (Homo sapiens, UniProt P25021); further: in other assays of this panel Not Active means under 50% inhibition at 10 µM
Sequence (P25021 whole entry): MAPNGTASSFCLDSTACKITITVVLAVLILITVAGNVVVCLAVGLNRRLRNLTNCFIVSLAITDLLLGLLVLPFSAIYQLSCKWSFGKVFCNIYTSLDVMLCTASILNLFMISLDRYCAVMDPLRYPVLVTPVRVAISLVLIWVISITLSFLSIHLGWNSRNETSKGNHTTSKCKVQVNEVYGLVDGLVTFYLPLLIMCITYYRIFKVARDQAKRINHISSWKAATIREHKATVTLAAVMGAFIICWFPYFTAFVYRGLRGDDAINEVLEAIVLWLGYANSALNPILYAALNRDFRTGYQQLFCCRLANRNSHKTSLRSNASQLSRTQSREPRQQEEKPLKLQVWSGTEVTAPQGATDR
Assay type: cell membranes, CHO-K1, Membrane
Details: read-out: IC50
Item-by-item account of pIC50
By convention, pIC50 is the negative base-10 log of a molar concentration.

See these solved cases before continuing.
structure.smiles.string | recorded.measurement
CN(C)CCCN1c2ccccc2CCc2ccc(Cl)cc21 | 5.69
Clc1ccccc1C(c1ccccc1)(c1ccccc1)n1ccnc1 | 5.29

Now for another entry.
## Task Tell me reported pIC50 for `CNCCC=C1c2ccccc2CCc2ccccc21` , tested with Histamine H2 receptor (Homo sapiens, UniProt P25021).
## Result 5.63

---

Target: UniProt:O70528
Sequence (O70528 whole entry): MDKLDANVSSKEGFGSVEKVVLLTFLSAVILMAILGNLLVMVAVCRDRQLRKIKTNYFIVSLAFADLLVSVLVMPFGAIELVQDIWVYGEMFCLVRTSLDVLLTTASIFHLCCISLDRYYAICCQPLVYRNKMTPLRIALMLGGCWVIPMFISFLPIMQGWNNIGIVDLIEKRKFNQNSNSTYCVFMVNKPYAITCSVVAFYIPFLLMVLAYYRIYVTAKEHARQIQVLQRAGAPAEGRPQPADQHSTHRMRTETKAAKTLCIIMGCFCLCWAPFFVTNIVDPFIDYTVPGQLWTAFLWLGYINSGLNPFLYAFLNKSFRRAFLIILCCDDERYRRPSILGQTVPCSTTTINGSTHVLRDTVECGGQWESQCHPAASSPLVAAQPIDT
Assay type: cell membranes, Dunkin-Hartley, Striatum, Membrane
quantity.measured: IC50

See these solved cases before continuing.
compound | IC50
CC1COc2c(N3CCN(C)CC3)c(F)cc3c(=O)c(C(=O)O)cn1c23 (stereo not given) [OFLOXACIN] | Not Active
CCC[C@@H]1C[C@@H](C(=O)N[C@@H]([C@H]2O[C@H](SC)[C@H](O)[C@@H](O)[C@H]2O)[C@@H](C)O)N(C)C1 [LINCOMYCIN] | Not Active
CCCCCCCCCc1ccc(O)cc1 [4-NONYLPHENOL] | Not Active
Cc1c(-c2ccccc2)oc2c(C(=O)OCCN3CCCCC3)cccc2c1=O [FLAVOXATE] | Not Active

Now for another entry.
## Task Recorded IC50 for CN1CCC[C@H]1c1cccnc1 [NICOTINE] , please?
## Result Not Active

---

Molecular target: D(3) dopamine receptor (Homo sapiens)
Sequence (P35462 whole entry): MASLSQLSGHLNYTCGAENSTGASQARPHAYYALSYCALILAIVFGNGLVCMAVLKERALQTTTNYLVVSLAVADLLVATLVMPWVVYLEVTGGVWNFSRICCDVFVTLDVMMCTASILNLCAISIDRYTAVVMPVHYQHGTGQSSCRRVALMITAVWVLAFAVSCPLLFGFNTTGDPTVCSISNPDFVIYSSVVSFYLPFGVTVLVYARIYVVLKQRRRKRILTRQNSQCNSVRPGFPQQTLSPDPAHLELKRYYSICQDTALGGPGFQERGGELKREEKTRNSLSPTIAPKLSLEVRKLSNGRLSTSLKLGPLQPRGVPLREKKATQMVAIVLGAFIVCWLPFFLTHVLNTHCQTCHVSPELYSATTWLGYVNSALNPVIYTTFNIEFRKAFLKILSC
Assay: DRUGMATRIX: Dopamine D3 radioligand binding (ligand: [3H] Spiperone)
Format: cell membranes, CHO, Membrane
Conditions: cho; read-out: IC50
quantity.measured: IC50 (nM)
Give the value, in units of nM, as a plain number.

## Task Recorded IC50 for `IVERMECTIN` , please?
## Result 2210

---

Biological target: UniProtKB Q9Y271
Format: cell membranes, CHO-K1, Membrane
Conditions: cho-k1
quantity.measured: IC50

See these solved cases before continuing.
compound | IC50
COc1ccc(C(CN(C)C)C2(O)CCCCC2)cc1 (stereo not given) [VENLAFAXINE] | Not Active
CN1CCC[C@H]1c1cccnc1 [NICOTINE] | Not Active
COC(=O)C1=C(C)NC(C)=C(C(=O)OC)C1c1ccccc1[N+](=O)[O-] [NIFEDIPINE] | Not Active
COc1c(N2CCNC(C)C2)c(F)cc2c(=O)c(C(=O)O)cn(C3CC3)c12 (stereo not given) [GATIFLOXACIN] | Not Active

Now for another entry.
## Task Recorded IC50 for NNc1ccccc1 [PHENYLHYDRAZINE] , please?
## Result Not Active

---

Target: Cytochrome P450 2C9 (Homo sapiens); further: in other assays of this panel Not Active means under 50% inhibition at 10 µM
Details: bti-tn-5b1-4
quantity.measured: Ki

compound | Ki
CCOC(=O)OC(C)OC1=C(C(=O)Nc2ccccn2)N(C)S(=O)(=O)c2ccccc21 (configuration not stated) | Not Active
CCc1ccc(C(=O)C(C)CN2CCCCC2)cc1 (configuration not stated) | Not Active
CC(/C=C1\SC(=S)N(CC(=O)O)C1=O)=C\c1ccccc1 | Not Active
OCc1ccccc1 | Not Active
CC1(C)S[C@@H]2[C@H](NC(=O)[C@H](NC(=O)N3CCNC3=O)c3ccccc3)C(=O)N2[C@H]1C(=O)O | Not Active

## Task Recorded Ki for CCc1cccc2c3c([nH]c12)C(CC)(CC(=O)O)OCC3 (configuration not stated) , please?
## Result Not Active

## Task What about this compound? `CC[C@H]1OC(=O)[C@H](C)[C@@H](O[C@H]2C[C@@](C)(OC)[C@@H](O)[C@H](C)O2)[C@H](C)[C@@H](O[C@@H]2O[C@H](C)C[C@H](N(C)C)[C@H]2O)[C@](C)(O)C[C@@H](C)/C(=N\OCOCCOC)[C@H](C)[C@@H](O)[C@]1(C)O`
## Result Not Active

---

Target: Endothelin-1 receptor (Homo sapiens, UniProt P25101); further: in other assays of this panel Not Active means under 50% inhibition at 10 µM
Sequence (P25101 whole entry): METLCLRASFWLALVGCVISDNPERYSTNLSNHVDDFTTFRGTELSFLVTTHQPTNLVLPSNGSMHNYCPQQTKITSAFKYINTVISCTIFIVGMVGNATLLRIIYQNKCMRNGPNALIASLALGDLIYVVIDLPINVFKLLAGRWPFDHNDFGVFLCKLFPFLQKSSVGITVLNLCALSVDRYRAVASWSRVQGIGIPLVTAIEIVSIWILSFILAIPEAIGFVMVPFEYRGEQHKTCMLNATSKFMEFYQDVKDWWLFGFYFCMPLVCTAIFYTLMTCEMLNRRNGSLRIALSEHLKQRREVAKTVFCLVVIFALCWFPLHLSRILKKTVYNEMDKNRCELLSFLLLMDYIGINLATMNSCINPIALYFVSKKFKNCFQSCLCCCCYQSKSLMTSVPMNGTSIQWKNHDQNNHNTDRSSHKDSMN
Format: cell membranes, Membrane
Details: cho-k1
quantity.measured: IC50

See these solved cases before continuing.
compound | IC50
CC(=O)OCC(=O)[C@@]1(OC(C)=O)[C@@H](C)C[C@H]2[C@@H]3C[C@H](F)C4=CC(=O)C=C[C@]4(C)[C@@]3(F)[C@@H](O)C[C@@]21C [DIFLORASONE DIACETATE] | Not Active
CN[C@@H]1[C@@H](O)[C@@H](O[C@@H]2[C@@H](O)[C@H](O[C@H]3OC(CN)=CC[C@H]3N)[C@@H](N)C[C@H]2N)OC[C@]1(C)O | Not Active
NNC(=O)c1ccncc1 | Not Active
COS(C)(=O)=O | Not Active
CC(=O)O[C@]1(C(C)=O)CC[C@H]2[C@@H]3C=C(Cl)C4=CC(=O)CC[C@]4(C)[C@H]3CC[C@@]21C [CHLORMADINONE ACETATE] | Not Active
COc1ccc([C@@H]2Sc3ccccc3N(CCN(C)C)C(=O)[C@@H]2OC(C)=O)cc1 | Not Active
CC(=O)CCCCn1c(=O)c2c(ncn2C)n(C)c1=O | Not Active
CC(C)[C@H](N)C(=O)OCCOCn1cnc2c(=O)nc(N)[nH]c21 | Not Active

## Task Recorded IC50 for `CC(=O)[C@@]1(O)CC[C@H]2[C@@H]3C[C@H](C)C4=CC(=O)C=C[C@]4(C)[C@@]3(F)[C@@H](O)C[C@@]21C` , please?
## Result Not Active

## Task What about this compound? Cc1c(-c2ccccc2)oc2c(C(=O)OCCN3CCCCC3)cccc2c1=O [FLAVOXATE]
## Result Not Active

## Task What about this compound? `C=C1CC[C@H](O)C/C1=C/C=C1\CCC[C@]2(C)[C@@H]([C@H](C)/C=C/[C@H](C)C(C)C)CC[C@@H]12`
## Result Not Active

## Task What about this compound? `CN(C)[C@@H]1C(O)=C(C(N)=O)C(=O)[C@@]2(O)C(O)=C3C(=O)c4c(O)cccc4[C@@](C)(O)[C@H]3[C@H](O)[C@@H]12`
## Result Not Active

## Task What about this compound? COc1c(C)c2c(c(O)c1C/C=C(\C)CCC(=O)OCCN1CCOCC1)C(=O)OC2 [MYCOPHENOLATE MOFETIL]
## Result Not Active

## Task What about this compound? CN(C)CCCC1(c2ccc(F)cc2)OCc2cc(C#N)ccc21 (stereo not given)
## Result Not Active

## Task What about this compound? `CN1CCC[C@H]1c1cccnc1`
## Result Not Active

---

Biological target: Cytochrome P450 2C9 (Homo sapiens, UniProt P11712); further: in other assays of this panel Not Active means under 50% inhibition at 10 µM
Sequence (P11712 whole entry): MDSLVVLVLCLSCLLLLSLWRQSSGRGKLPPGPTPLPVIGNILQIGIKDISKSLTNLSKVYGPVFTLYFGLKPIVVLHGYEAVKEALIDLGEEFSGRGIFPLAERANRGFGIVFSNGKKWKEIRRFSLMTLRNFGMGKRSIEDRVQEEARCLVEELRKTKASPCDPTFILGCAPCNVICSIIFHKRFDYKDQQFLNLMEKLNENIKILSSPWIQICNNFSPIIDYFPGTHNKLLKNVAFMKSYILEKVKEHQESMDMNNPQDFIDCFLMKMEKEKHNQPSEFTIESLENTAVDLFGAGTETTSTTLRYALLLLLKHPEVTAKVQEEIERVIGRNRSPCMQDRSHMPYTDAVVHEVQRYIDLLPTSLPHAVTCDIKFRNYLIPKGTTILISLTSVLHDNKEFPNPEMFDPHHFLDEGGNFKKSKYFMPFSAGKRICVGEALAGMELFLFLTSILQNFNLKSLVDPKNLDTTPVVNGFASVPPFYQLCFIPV
Settings: bti-tn-5b1-4
quantity.measured: IC50

molecule | IC50
CCOC(=O)OC(C)OC1=C(C(=O)Nc2ccccn2)N(C)S(=O)(=O)c2ccccc21 (centres undefined) | Not Active
CCc1cccc2c3c([nH]c12)C(CC)(CC(=O)O)OCC3 (centres undefined) | Not Active
COc1ccc2c(c1)c(CC(=O)OCC(=O)O)c(C)n2C(=O)c1ccc(Cl)cc1 | Not Active
Cc1ccc(C(=O)C(C)CN2CCCCC2)cc1 (centres undefined) | Not Active
Oc1c(I)cc(I)c2cccnc12 | Not Active

## Task Recorded IC50 for `CC(C)(O)c1ccccc1CC[C@@H](SCC1(CC(=O)O)CC1)c1cccc(/C=C/c2ccc3ccc(Cl)cc3n2)c1` , please?
## Result Not Active

## Task What about this molecule? `Nc1nnc(-c2cccc(Cl)c2Cl)c(N)n1`
## Result Not Active

## Task What about this molecule? `CC(=O)[C@H]1CC[C@H]2[C@@H]3CCC4=CC(=O)CC[C@]4(C)[C@H]3CC[C@]12C`
## Result Not Active

## Task What about this molecule? Cc1ncc([N+](=O)[O-])n1CC(C)O (centres undefined)
## Result Not Active

---

Biological target: Vasoactive intestinal polypeptide receptor 1 (Homo sapiens); further: in other assays of this panel Not Active means under 50% inhibition at 10 µM
Sequence (P32241 whole entry): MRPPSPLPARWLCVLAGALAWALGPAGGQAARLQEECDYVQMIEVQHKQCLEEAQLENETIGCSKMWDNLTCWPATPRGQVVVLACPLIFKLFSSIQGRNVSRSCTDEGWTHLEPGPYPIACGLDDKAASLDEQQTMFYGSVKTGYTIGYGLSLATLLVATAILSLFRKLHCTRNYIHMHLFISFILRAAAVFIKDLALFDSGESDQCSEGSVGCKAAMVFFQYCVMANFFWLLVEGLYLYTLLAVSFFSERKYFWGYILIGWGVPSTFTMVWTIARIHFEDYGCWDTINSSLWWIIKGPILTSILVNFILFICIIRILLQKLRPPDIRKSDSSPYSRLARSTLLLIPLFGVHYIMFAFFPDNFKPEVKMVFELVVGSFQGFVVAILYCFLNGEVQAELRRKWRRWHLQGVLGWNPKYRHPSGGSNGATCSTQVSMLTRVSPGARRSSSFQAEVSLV
Format: cell membranes, Membrane
Conditions: ht-29

molecule | IC50
CC(C)(O)c1ccccc1CC[C@@H](SCC1(CC(=O)O)CC1)c1cccc(/C=C/c2ccc3ccc(Cl)cc3n2)c1 | Not Active
CC(C)(C)NCC(O)c1cc(O)cc(O)c1 (stereo not drawn) | Not Active
C=C1[C@@H]2CCC3[C@@](CC[C@@H]4[C@H](C(=O)O)C[C@@H](O[C@@H]5O[C@H](CO)[C@@H](OS(=O)(=O)[O-])[C@H](OS(=O)(=O)[O-])[C@H]5OC(=O)CC(C)C)C[C@@]34C)(C2)[C@@H]1O.[K+].[K+] (stereo partly drawn) [ATRACTYLOSIDE] | Not Active
